switch fluorescence ratio for assorted sequences
System: ATP;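 also: ATP exposure 15 min at 22 °C before imaging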
Assay procedure: switch fluorescence ratio, 500 uM ATP over buffer (Cy3 cluster intensity, sum of 5 cycles each) (fold (ratio)); higher = stronger signal-on switching upon ATP binding; sequences stand for … in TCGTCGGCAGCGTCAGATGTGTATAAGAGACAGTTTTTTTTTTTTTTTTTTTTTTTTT…TC
Protocol conditions: aptamer strand: ATP DNA aptamer (quencher-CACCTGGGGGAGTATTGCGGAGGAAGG + anchor), 100 nM annealed; ATP concentration: 500 uM
// return a plain number; no unit text

Reference set, count: 3
>  <Construct sequence>
GGGGGTTGGC

>  <Measurement>
0.966

$$$$
>  <Construct sequence>
CGGGTGAGTA

>  <Measurement>
1.05

$$$$
>  <Construct sequence>
TTAACAGGAA

>  <Measurement>
1.02

$$$$

Now for the sequence whose switch fluorescence ratio we want.
Form: sequence = `CGTTGACCTT` ; switch fluorescence ratio = 1.07

----------
Test system: ATP;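 also: ATP exposure 15 min at 22 °C before imaging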
Assay procedure: switch fluorescence ratio, 500 uM ATP over buffer (Cy3 cluster intensity, sum of 5 cycles each) (fold (ratio)); higher = stronger signal-on switching upon ATP binding; sequences stand for … in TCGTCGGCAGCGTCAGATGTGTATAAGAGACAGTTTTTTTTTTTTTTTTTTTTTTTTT…TC
Protocol conditions: aptamer strand: ATP DNA aptamer (quencher-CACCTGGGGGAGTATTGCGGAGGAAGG + anchor), 100 nM annealed; ATP concentration: 500 uM
Quick rule for you: switch fluorescence ratio at 1 or higher means yes (1), lower means no (0).

>  <Construct sequence>
ATGAAAATTT

>  <Answer label>
yes (1)

$$$$
>  <Construct sequence>
TTAAGGCTAA

>  <Answer label>
yes (1)

$$$$
>  <Construct sequence>
TGTTTAAATA

>  <Answer label>
yes (1)

$$$$
>  <Construct sequence>
CGTATGGGGC

>  <Answer label>
no (0)

$$$$
>  <Construct sequence>
CACAGGGGGG

>  <Answer label>
yes (1)

$$$$
>  <Construct sequence>
TGAAAACACC

>  <Answer label>
yes (1)

$$$$

Q: Form field: switch fluorescence ratio at least 1? Entry: `GGGTTCCGGC`
A: yes (1)

Q: Form field: switch fluorescence ratio at least 1? Entry: `AGCAATGGGG`
A: yes (1)

Q: Form field: switch fluorescence ratio at least 1? Entry: `GGGTCGGACG`
A: yes (1)

----------
switch fluorescence ratio for assorted sequences
Tested on: ATP;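 also: ATP exposure 15 min at 22 °C before imaging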
Assay procedure: switch fluorescence ratio, 500 uM ATP over buffer (Cy3 cluster intensity, sum of 5 cycles each) (fold (ratio)); higher = stronger signal-on switching upon ATP binding; sequences stand for … in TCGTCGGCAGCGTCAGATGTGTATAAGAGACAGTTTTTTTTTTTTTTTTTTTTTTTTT…TC
Protocol conditions: aptamer strand: ATP DNA aptamer (quencher-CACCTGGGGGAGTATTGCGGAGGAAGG + anchor), 100 nM annealed; ATP concentration: 500 uM
// return a plain number; no unit text

Reference set, count: 4
>  <Construct sequence>
TCCGGGGGGC

>  <Test target>
ATP;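 also: ATP exposure 15 min at 22 °C before imaging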

>  <Measurement>
1.15

$$$$
>  <Construct sequence>
CGTCATATTG

>  <Test target>
ATP;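 also: ATP exposure 15 min at 22 °C before imaging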

>  <Measurement>
0.997

$$$$
>  <Construct sequence>
TTCGTAGCAG

>  <Test target>
ATP;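 also: ATP exposure 15 min at 22 °C before imaging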

>  <Measurement>
1.23

$$$$
>  <Construct sequence>
TGTCAAAAAC

>  <Test target>
ATP;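 also: ATP exposure 15 min at 22 °C before imaging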

>  <Measurement>
1.28

$$$$

Form: sequence = `CGGAAACAAA` ; switch fluorescence ratio = 1.01

Form: sequence = `ACGAAATAGG` ; switch fluorescence ratio = 1.07

Form: sequence = `GGTAACATGG` ; switch fluorescence ratio = 1.01

Form: sequence = `AGGTGCTCTT` ; switch fluorescence ratio = 1

Form: sequence = `CAATTGCGCT` ; switch fluorescence ratio = 1.01

Form: sequence = `TGGTTACATG` ; switch fluorescence ratio = 1.02

Form: sequence = `TATGTGAAGG` ; switch fluorescence ratio = 0.995

----------
Tested on: ATP;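 also: ATP exposure 15 min at 22 °C before imaging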
Assay procedure: switch fluorescence ratio, 500 uM ATP over buffer (Cy3 cluster intensity, sum of 5 cycles each) (fold (ratio)); higher = stronger signal-on switching upon ATP binding; sequences stand for … in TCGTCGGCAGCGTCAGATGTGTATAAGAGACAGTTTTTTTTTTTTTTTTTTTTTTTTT…TC
Protocol conditions: aptamer strand: ATP DNA aptamer (quencher-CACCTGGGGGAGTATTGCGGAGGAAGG + anchor), 100 nM annealed; ATP concentration: 500 uM
Quick rule for you: switch fluorescence ratio at 1 or higher means Fulfilled, lower means Not fulfilled.

>  <Construct sequence>
CGGGTGGGCA

>  <Answer label>
Not fulfilled

$$$$

Q: Form field: switch fluorescence ratio at least 1? Entry: `AGGTAATACG`
A: Fulfilled

Q: Form field: switch fluorescence ratio at least 1? Entry: `ACTTTGACAT`
A: Fulfilled

Q: Form field: switch fluorescence ratio at least 1? Entry: `GCCAGAGGGG`
A: Fulfilled

Q: Form field: switch fluorescence ratio at least 1? Entry: `CAACTTTAGT`
A: Fulfilled

----------
switch fluorescence ratio for assorted sequences
Test system: ATP;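 also: ATP exposure 15 min at 22 °C before imaging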
Assay procedure: switch fluorescence ratio, 500 uM ATP over buffer (Cy3 cluster intensity, sum of 5 cycles each) (fold (ratio)); higher = stronger signal-on switching upon ATP binding; sequences stand for … in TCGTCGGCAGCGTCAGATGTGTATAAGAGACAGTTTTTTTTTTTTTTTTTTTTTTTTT…TC
Protocol conditions: aptamer strand: ATP DNA aptamer (quencher-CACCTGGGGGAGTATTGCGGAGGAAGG + anchor), 100 nM annealed; ATP concentration: 500 uM

Reference set, count: 3
>  <Construct sequence>
TCGATGGGGA

>  <switch fluorescence ratio>
1.02

$$$$
>  <Construct sequence>
TGTTTGTGAA

>  <switch fluorescence ratio>
0.982

$$$$
>  <Construct sequence>
GGGAATGTAA

>  <switch fluorescence ratio>
0.973

$$$$

Field switch fluorescence ratio (ATP), entry `AATTTTTCGG` : 0.994

Field switch fluorescence ratio (ATP), entry `AAAATGATTT` : 1.02

Field switch fluorescence ratio (ATP), entry `ATTAGGGTAT` : 1.01

Field switch fluorescence ratio (ATP), entry `GGCTAAGAGT` : 0.991

Field switch fluorescence ratio (ATP), entry `TTTCGGTTGC` : 1.07

Field switch fluorescence ratio (ATP), entry `GGTTTTTTGT` : 0.992

Field switch fluorescence ratio (ATP), entry `TGTTTGATTT` : 0.975

Field switch fluorescence ratio (ATP), entry `TATGTACACT` : 1.06

----------
Test system: ATP;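 also: ATP exposure 15 min at 22 °C before imaging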
Assay procedure: switch fluorescence ratio, 500 uM ATP over buffer (Cy3 cluster intensity, sum of 5 cycles each) (fold (ratio)); higher = stronger signal-on switching upon ATP binding; sequences stand for … in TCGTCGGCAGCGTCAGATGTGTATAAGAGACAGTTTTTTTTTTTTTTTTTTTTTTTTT…TC
Protocol conditions: aptamer strand: ATP DNA aptamer (quencher-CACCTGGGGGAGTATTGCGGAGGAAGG + anchor), 100 nM annealed; ATP concentration: 500 uM
Quick rule for you: switch fluorescence ratio at 1 or higher means Y, lower means N.

Some entries whose results are on file:
>  <Construct sequence>
TTTTGCGGCG

>  <Test target>
ATP;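 also: ATP exposure 15 min at 22 °C before imaging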

>  <Answer label>
Y

$$$$
>  <Construct sequence>
ATGGGGATAC

>  <Test target>
ATP;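 also: ATP exposure 15 min at 22 °C before imaging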

>  <Answer label>
Y

$$$$
>  <Construct sequence>
TCCGATTACG

>  <Test target>
ATP;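 also: ATP exposure 15 min at 22 °C before imaging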

>  <Answer label>
Y

$$$$
>  <Construct sequence>
GATTATTCTG

>  <Test target>
ATP;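 also: ATP exposure 15 min at 22 °C before imaging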

>  <Answer label>
N

$$$$
>  <Construct sequence>
GGGATAATGG

>  <Test target>
ATP;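 also: ATP exposure 15 min at 22 °C before imaging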

>  <Answer label>
N

$$$$

Q: Form field: switch fluorescence ratio at least 1? Entry: `GGGGAGCGAT`
A: Y

----------
Test system: ATP;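 also: ATP exposure 15 min at 22 °C before imaging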
Assay procedure: switch fluorescence ratio, 500 uM ATP over buffer (Cy3 cluster intensity, sum of 5 cycles each) (fold (ratio)); higher = stronger signal-on switching upon ATP binding; sequences stand for … in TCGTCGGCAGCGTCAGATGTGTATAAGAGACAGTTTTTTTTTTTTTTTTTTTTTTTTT…TC
Protocol conditions: aptamer strand: ATP DNA aptamer (quencher-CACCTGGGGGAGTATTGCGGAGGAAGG + anchor), 100 nM annealed; ATP concentration: 500 uM
switch fluorescence ratio for assorted sequences
// return a plain number; no unit text

Reference set, count: 10
>  <Construct sequence>
ACGTTAAATG

>  <switch fluorescence ratio>
1.13

$$$$
>  <Construct sequence>
TTTTAATTGT

>  <switch fluorescence ratio>
1.08

$$$$
>  <Construct sequence>
GTCGTCGGAG

>  <switch fluorescence ratio>
1.03

$$$$
>  <Construct sequence>
AGGGGCTTGC

>  <switch fluorescence ratio>
0.956

$$$$
>  <Construct sequence>
GGTATGGGGT

>  <switch fluorescence ratio>
1.03

$$$$
>  <Construct sequence>
TCATGGCACC

>  <switch fluorescence ratio>
1.05

$$$$
>  <Construct sequence>
CGACAAAGCC

>  <switch fluorescence ratio>
1.28

$$$$
>  <Construct sequence>
GTAAGTTCTG

>  <switch fluorescence ratio>
1

$$$$
>  <Construct sequence>
GAGGGCAATG

>  <switch fluorescence ratio>
1.22

$$$$
>  <Construct sequence>
GGGCCACGGA

>  <switch fluorescence ratio>
1.01

$$$$

Form: sequence = `TATAGGAGGT` ; switch fluorescence ratio = 0.987

Form: sequence = `AATGAAGGCA` ; switch fluorescence ratio = 1

Form: sequence = `GGGGCTTATG` ; switch fluorescence ratio = 0.968
